Measured 20 nM hKLB-HA-6His Bind (RU) of individual entries
Target: T1, extracellular domain of human KLB expressed with C-terminal HA and hexahistidine tags (human, UniProt Q86Z14 1-996)
T1 construct: also called hKLB-HA-6His; hKLB-HA-6his
T1 sequence: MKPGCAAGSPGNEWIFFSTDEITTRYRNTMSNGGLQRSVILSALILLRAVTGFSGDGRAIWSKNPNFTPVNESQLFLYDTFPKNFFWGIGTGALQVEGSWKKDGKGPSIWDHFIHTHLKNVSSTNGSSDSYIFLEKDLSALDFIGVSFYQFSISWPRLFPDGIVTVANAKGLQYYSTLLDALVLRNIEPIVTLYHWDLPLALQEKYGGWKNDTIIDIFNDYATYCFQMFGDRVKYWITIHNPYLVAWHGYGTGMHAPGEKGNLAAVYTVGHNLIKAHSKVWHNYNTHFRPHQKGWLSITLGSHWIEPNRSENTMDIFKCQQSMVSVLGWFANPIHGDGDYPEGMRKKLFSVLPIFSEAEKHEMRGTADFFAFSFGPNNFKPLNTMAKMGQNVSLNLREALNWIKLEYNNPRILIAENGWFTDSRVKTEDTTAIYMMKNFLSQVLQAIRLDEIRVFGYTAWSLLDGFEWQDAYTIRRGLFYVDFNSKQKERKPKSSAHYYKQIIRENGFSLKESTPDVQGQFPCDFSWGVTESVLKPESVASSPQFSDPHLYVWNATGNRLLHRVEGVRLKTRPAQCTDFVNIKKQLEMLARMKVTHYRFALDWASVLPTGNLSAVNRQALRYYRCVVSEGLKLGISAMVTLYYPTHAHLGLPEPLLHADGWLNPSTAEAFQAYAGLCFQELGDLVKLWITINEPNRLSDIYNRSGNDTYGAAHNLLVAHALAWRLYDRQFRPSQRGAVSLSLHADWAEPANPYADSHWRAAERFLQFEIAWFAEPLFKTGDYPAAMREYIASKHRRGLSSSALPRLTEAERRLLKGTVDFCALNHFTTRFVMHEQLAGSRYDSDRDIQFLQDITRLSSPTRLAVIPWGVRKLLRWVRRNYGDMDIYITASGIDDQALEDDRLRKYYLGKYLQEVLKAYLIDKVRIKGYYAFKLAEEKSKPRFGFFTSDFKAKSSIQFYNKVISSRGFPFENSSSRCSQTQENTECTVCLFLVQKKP
Experiment: SPR, mAb captured, 37 C
METRIC: 20 nM hKLB-HA-6His Bind (RU)

BINDER: H2aM8091N (antibody, V domains shown, mouse IgG2 Fc (H2aM prefix); also called H2M8091N) VH: QVQLVQSGADMKKPGASVKVSCKASGYTFTTYGINWVRQAPGQGLEWMGWISAYSGITNYAQSFQGRVTMTTDTSTSTAYMELRSLRSDDTAVYYCARGGYNWATGDYFDYWGQGTLVTVSS VL: DIQMTQSPSTLSASIGDRVTITCRASQSISSWLAWYQQKPGKAPKFLIYKASSLASGVPSRFSGSGSGTEFTLTISSLQPDDFATYYCQQYDSYSPYTFGQGTKVEIK
RESULT NUMBER: -2.3
//
BINDER: H1H8900P (antibody, V domains shown, H1H Fc prefix (human Fc)) VH: QVQLVESGGGVVQPGRSLRLSCVASGFTFSSYGMHWVRQAPGKGLEWVAVISFDGSNKYYADSVKGRFTISRDNSKNTLYLQMNSLRPADTAVYYCAKDRSNYYYFGMDVWGQGTTVTVSS VL: DIVMTQTPLSLPVTPGEPASISCRSSQSLLDSDDGNTYLDWYLQKPGQSPQLLIYTLSYRASGVPDRFSGSGSGTDFTLKISRVEAEDVGVYYCMQRIEFPLTFGGGTKVEIK
RESULT NUMBER: 2.6
